experimental target: Dual specificity mitogen-activated protein kinase kinase 1 (Homo sapiens)
Sequence (Q02750 whole entry): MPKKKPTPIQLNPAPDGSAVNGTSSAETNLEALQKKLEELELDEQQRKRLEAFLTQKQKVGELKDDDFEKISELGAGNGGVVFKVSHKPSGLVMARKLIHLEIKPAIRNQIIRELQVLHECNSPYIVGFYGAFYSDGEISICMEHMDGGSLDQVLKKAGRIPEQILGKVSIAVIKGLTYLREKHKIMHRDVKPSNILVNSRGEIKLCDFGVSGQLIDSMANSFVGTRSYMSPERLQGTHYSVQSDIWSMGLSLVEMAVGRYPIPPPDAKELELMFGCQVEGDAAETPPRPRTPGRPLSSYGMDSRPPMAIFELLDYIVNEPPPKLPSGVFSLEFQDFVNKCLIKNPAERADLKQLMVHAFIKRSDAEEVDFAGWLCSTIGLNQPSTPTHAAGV
test protocol: Inhibitory activity against MEK
pIC50: −log10 of the molar value.
test readout: pIC50

COC(=O)Nc1cn2ncc(C#N)c(Nc3ccc(Oc4ccccc4)cc3)c2c1C
7.64
CCOC(=O)c1cn2ncc(C#N)c(Nc3ccc(C(=O)c4ccccc4)cc3)c2c1C
5.95
Cc1c(NC(=O)c2ccccc2)cn2ncc(C#N)c(Nc3ccc(Oc4ccccc4)cc3)c12
7.38

(I) Cc1c(NC(=O)NCCN2CCOCC2)cn2ncc(C#N)c(Nc3ccc(Oc4ccccc4)cc3)c12
(II) Cc1c(OCCN2CCOCC2)cn2ncc(C#N)c(Nc3ccc(Oc4ccccc4)cc3)c12
(III) Cc1c(NC(=O)OCCN2CCOCC2)cn2ncc(C#N)c(Nc3ccc(Oc4ccccc4)cc3)c12
(IV) CCOC(=O)c1cn2ncc(C#N)c(Oc3ccc(Oc4ccccc4)cc3)c2c1C
(V) CNC(=O)Nc1cn2ncc(C#N)c(Nc3ccc(Oc4ccccc4)cc3)c2c1C
Hey, quick one: sort these by pIC50, low to high? Respond with the label ranking, as requested.
IV, II, III, I, V
(IV: 5.27, II: 6.28, III: 7.24, I: 7.44, V: 7.74)

* * *

experimental target: Dual specificity mitogen-activated protein kinase kinase 1 (Homo sapiens)
test protocol: Inhibitory activity against MEK
test readout: IC50 (µM)

(a) CCOC(=O)c1cn2ncc(C#N)c(Nc3ccc(Nc4ccccc4)cc3)c2c1C
(b) COc1cccc(Oc2ccc(Nc3c(C#N)cnn4cc(NC(=O)OCCN5CCOCC5)c(C)c34)cc2)c1
Between a and b , which one shows the larger IC50 value? Selection: enter the item's label.
a

* * *

Test system: HT-29
test protocol: Antiproliferative activity against human tumor HT29 cell line
Type: functional
Recorded Activity values for a group of compounds are listed next.
Answer in µM, number only, no unit symbol.

CC(=O)Nc1cccc(C(=O)Nc2cn3ncc(C#N)c(Nc4ccc(Oc5ccccc5)cc4)c3c2C)c1
1.34
COc1cccc(Oc2ccc(Nc3c(C#N)cnn4cc(NC(=O)OCCN5CCOCC5)c(C)c34)cc2)c1
2.35
Cc1c(NC(=O)NCCN2CCOCC2)cn2ncc(C#N)c(Nc3ccc(Oc4ccccc4)cc3)c12
0.86
CNC(=O)Nc1cn2ncc(C#N)c(Nc3ccc(Oc4ccccc4)cc3)c2c1C
7.38
Cc1c(NC(=O)OCCN2CCOCC2)cn2ncc(C#N)c(Nc3ccc(Oc4ccccc4)cc3)c12
3.76
COc1ccccc1Oc1ccc(Nc2c(C#N)cnn3cc(NC(=O)OCCN4CCOCC4)c(C)c23)cc1
3.78

Entry COC(=O)Nc1cn2ncc(C#N)c(Nc3ccc(Oc4ccccc4)cc3)c2c1C has what Activity?
7.64

Suppose we examine the compound Cc1c(NC(=O)c2ccccc2)cn2ncc(C#N)c(Nc3ccc(Oc4ccccc4)cc3)c12 ; what Activity value has been reported?
2.13

* * *

Item-by-item account of Activity
Tested on: COLO 205
test protocol: Antiproliferative activity against human tumor Colo205 cell line
Assay type: functional
Unit µM implied. Number only.

COc1ccccc1Oc1ccc(Nc2c(C#N)cnn3cc(NC(=O)OCCN4CCOCC4)c(C)c23)cc1
2.06
Cc1c(NC(=O)OCCN2CCOCC2)cn2ncc(C#N)c(Nc3ccc(Oc4ccccc4)cc3)c12
2.88
CC(=O)Nc1cccc(C(=O)Nc2cn3ncc(C#N)c(Nc4ccc(Oc5ccccc5)cc4)c3c2C)c1
1.86
COc1cccc(Oc2ccc(Nc3c(C#N)cnn4cc(NC(=O)OCCN5CCOCC5)c(C)c34)cc2)c1
0.72
Cc1c(NC(=O)c2ccccc2)cn2ncc(C#N)c(Nc3ccc(Oc4ccccc4)cc3)c12
2.42

Now for the compound whose Activity we want.
Any idea what Activity was measured for Cc1c(NC(=O)NCCN2CCOCC2)cn2ncc(C#N)c(Nc3ccc(Oc4ccccc4)cc3)c12 ?
3.9

Reference source for all entries: ChEMBL document CHEMBL1148629
